Experiment: Selectivity index, ratio of IC50 for CHO cells to IC50 for chloroquine-sensitive Plasmodium falciparum D10
Type: toxicity, cell-based
Conditions: hamster, CHO cells; read-out: Selectivity Index
Each item that follows carries a reported selectivity ratio.
Response field accepts a number only; no unit should be typed.

CC(CNc1ccnc2cc(Cl)ccc12)NCCO[C@H]1O[C@@H]2O[C@@]3(C)CC[C@H]4[C@H](C)CC[C@@H]([C@H]1C)[C@@]24OO3 (stereo partly drawn) : 279
C[C@H]1[C@@H](OCCN2CCN(c3ccnc4cc(Cl)ccc34)CC2)O[C@@H]2O[C@@]3(C)CC[C@H]4[C@H](C)CC[C@@H]1[C@@]24OO3 : 193

Turning to the following compound.
Name the reported selectivity ratio value associated with the compound `C[C@H]1[C@@H](OCCN2CCN(CCNc3ccnc4cc(Cl)ccc34)CC2)O[C@@H]2O[C@@]3(C)CC[C@H]4[C@H](C)CC[C@@H]1[C@@]24OO3.O=C(O)C(=O)O`
80
